Parameter growth inhibition: see the listing below.
- ASSAY_PROCEDURE: NCI Yeast Anticancer Drug Screen. Data for the cln2 rad14 strain (AID 165);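 note: 0% = growth equal to vehicle treated cultures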
- TEST_PARAMETERS: S. cerevisiae cln2 rad14 strain, at 50.0 µM, stronger effect = higher value
About 79,000 compounds went through this panel and 15% of them were active in at least one assay; those are over-represented in the sample as a whole.

SUBSTANCE_SMILES: Cc1ccnc(NC(=O)Nc2ccccc2Cl)c1
UNIT_NAME: %
growth inhibition: 3.15
//
SUBSTANCE_SMILES: NS(=O)(=O)c1cccc(C(F)(F)F)c1
UNIT_NAME: %
growth inhibition: -21.7
//
SUBSTANCE_SMILES: CCCCCCCCCCCCOc1cccc(OCCCCCCCCCCCC)c1
UNIT_NAME: %
growth inhibition: -41.1
//
SUBSTANCE_SMILES: CC(=O)C(CCC#N)(CCC#N)C(=O)Nc1ccccc1
UNIT_NAME: %
growth inhibition: -6
//
SUBSTANCE_SMILES: O=[N+]([O-])c1ccc(CN2CCC(C(=S)Nc3ccccc3)=C2c2ccccc2)cc1
UNIT_NAME: %
growth inhibition: 9.05
//
SUBSTANCE_SMILES: c1ccc(CCN2CCN(CCc3ccccn3)CC2)nc1
UNIT_NAME: %
growth inhibition: -19.6
//
SUBSTANCE_SMILES: CC(=O)CC(=O)Nc1cccc(NC(=O)CC(C)=O)c1
UNIT_NAME: %
growth inhibition: 3.85
//
SUBSTANCE_SMILES: C#CCSC(=N)N
UNIT_NAME: %
growth inhibition: 5.2
//
SUBSTANCE_SMILES: Nc1ccnc2n[nH]nc12
UNIT_NAME: %
growth inhibition: -9.05
//
SUBSTANCE_SMILES: CC(C)/C(=N\N=C(\c1ccccc1)C(C)C)c1ccccc1
UNIT_NAME: %
growth inhibition: -7.7
//
SUBSTANCE_SMILES: COc1c(O)cc2oc(-c3ccc(O)cc3)cc(=O)c2c1O
UNIT_NAME: %
growth inhibition: 10.8
//
SUBSTANCE_SMILES: CC(C)(O)c1cc(=O)n(-c2ccccc2)[nH]1
UNIT_NAME: %
growth inhibition: -64.8
//
SUBSTANCE_SMILES: O=Cc1ccc(C(=O)O)cc1
UNIT_NAME: %
growth inhibition: -13.2
